Procedure details: Half-life in Cynomolgus monkey at 30 mg/kg, po measured upto 48 hrs by LC-MS/MS analysis
Assay type: ADME, organism-based, Macaca fascicularis
Measurement context: in vivo
Attribute measured: half-life (h)
State the answer as a number, implicitly in h.

Reported half-life, compound CCc1cnc(N2CCC(COc3ccc(C4=CC[C@H](C(=O)N5CCC[C@@H]5CO)CC4)cc3)CC2)nc1 : ____
11.7

====

Assay system: UniProt:Q8TDV5
Procedure details: Agonist activity at human GPR119 expressed in CHO cells assessed as cAMP level measured after 90 mins by HTRF based assay
Type: functional, cell-based
Attribute measured: pEC50
Remember the convention: pEC50 equals -log10 of concentration in molar.

Reported pEC50, molecule CCc1cnc(N2CCC(COc3ccc(C4=CCC(C(=O)N5CCC[C@H]5CO)CC4)cc3)CC2)nc1 (some centres undefined) : ____
7.51

Reported pEC50, molecule CC(C)(C)OC(=O)N1CCC(COc2ccc(C3=CCC(C(=O)NCC(F)F)CC3)cc2)CC1 (centres undefined) : ____
7.47

Reported pEC50, molecule CC(C)c1noc(N2CCC(COc3ccc(C4=CCC(C(=O)N5CCC5)CC4)cc3)CC2)n1 (centres undefined) : ____
7.39

Reported pEC50, molecule CC(C)(C)OC(=O)N1CCC(COc2ccc(C3=CCC(C(=O)NC4CC4)CC3)cc2)CC1 (centres undefined) : ____
7.40

Reported pEC50, molecule CCc1cnc(N2CCC(COc3ccc(C4=CCC(C(=O)N5CCOCC5)CC4)cc3)CC2)nc1 (centres undefined) : ____
7.89

Reported pEC50, molecule CC(C)(C)OC(=O)N1CCC(COc2ccc(C3=CCC(C(=O)N4CCOCC4)CC3)cc2)CC1 (centres undefined) : ____
7.89

Reported pEC50, molecule CCc1cnc(N2CCC(COc3ccc(C4=CCC(C(=O)N5CC[C@H](O)C5)CC4)cc3)CC2)nc1 (some centres undefined) : ____
7.59

Reported pEC50, molecule CCc1cnc(N2CCC(COc3ccc(C4=CCC(C(=O)N5CCC5)CC4)cc3)CC2)nc1 (centres undefined) : ____
7.42

Reported pEC50, molecule CCc1cnc(N2CCC(COc3ccc(C4=CCC(C(=O)N5CCCC5)CC4)cc3)CC2)nc1 (centres undefined) : ____
7.57

====

Assay system: Glucose-dependent insulinotropic receptor (Homo sapiens)
Sequence (Q8TDV5 whole entry): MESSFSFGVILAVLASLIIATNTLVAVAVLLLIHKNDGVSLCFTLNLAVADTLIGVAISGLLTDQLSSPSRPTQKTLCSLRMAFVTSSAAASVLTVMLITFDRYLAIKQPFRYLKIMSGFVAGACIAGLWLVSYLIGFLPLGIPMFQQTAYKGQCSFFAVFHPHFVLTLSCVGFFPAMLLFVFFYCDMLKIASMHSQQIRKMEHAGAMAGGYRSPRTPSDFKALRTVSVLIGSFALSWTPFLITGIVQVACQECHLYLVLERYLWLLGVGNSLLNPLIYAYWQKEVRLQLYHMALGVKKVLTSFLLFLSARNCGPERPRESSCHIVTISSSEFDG
Procedure details: Agonist activity at human GPR119 expressed in CHO cells assessed as cAMP level measured after 90 mins by HTRF based assay
Assay type: functional, cell-based
Attribute measured: log10(EC50) (log10 of the value in nM)
// stored as log10 of EC50 expressed in nM

Reported log10(EC50), compound CCc1cnc(N2CCC(COc3ccc(C4=CCC(C(=O)N5CCC[C@@H]5CO)CC4)cc3)CC2)nc1 (stereo partly specified) : ____
0.83

Reported log10(EC50), compound CCc1cnc(N2CCC(COc3ccc(C4=CCC(C(=O)N5CCC(=O)C5)CC4)cc3)CC2)nc1 (stereo unspecified) : ____
1.08

Reported log10(EC50), compound CC(C)c1noc(N2CCC(COc3ccc(C4=CCC(C(=O)N5CCOCC5)CC4)cc3)CC2)n1 (stereo unspecified) : ____
1.26

Reported log10(EC50), compound CCc1cnc(N2CCC(COc3ccc(C4=CCC(C(=O)N5CC(O)C5)CC4)cc3)CC2)nc1 (stereo unspecified) : ____
1.85

Reported log10(EC50), compound CC(C)c1noc(N2CCC(COc3ccc(C4=CCC(C(=O)N5CCCC5)CC4)cc3)CC2)n1 (stereo unspecified) : ____
1.74

Reported log10(EC50), compound CN(CCO)C(=O)C1CC=C(c2ccc(OCC3CCN(C(=O)OC(C)(C)C)CC3)cc2)CC1 (stereo unspecified) : ____
1.15
